assay comment: Metabolic stability in human liver microsomes assessed as hepatic extraction ratio at 5 uM measured upto 30 mins in presence of NADPH by LC-MS/MS analysis
Format: ADME, Microsome
cond: read-out: ERH

{"compound": "C=C(C)[C@@H]1CCC(C)=C[C@H]1c1c(O)cc(CCCCC)c2c1OCN(CCCC)C2", "hepatic extraction ratio at 0.5 h, 5 µM": 0.71}
{"compound": "C=C(C)[C@@H]1CCC(C)=C[C@H]1c1c(O)cc(CCCCC)c2c1OCN(C1CCC1)C2", "hepatic extraction ratio at 0.5 h, 5 µM": 0.81}

----------
selectivity ratio values for the molecules below.
assay comment: Selectivity index, ratio of IC50 for HEK293 cells to IC50 for human HCT-116 cells
Assay type: toxicity
cond: HEK293 cells versus HCT-116 cells, read-out: Ratio IC50

{"molecule": "C=C(C)[C@@H]1CCC(C)=C[C@H]1c1c(O)cc(CCCCC)c2c1OCN(C)C2", "selectivity ratio": 1.1}
{"molecule": "C=C(C)[C@@H]1CCC(C)=C[C@H]1c1c(O)cc(CCCCC)cc1O [CANNABIDIOL]", "selectivity ratio": 9.7}
{"molecule": "C=C(C)[C@@H]1CCC(C)=C[C@H]1c1c(O)cc(CCCCC)c2c1OCN(CCC)C2", "selectivity ratio": 2.9}
